Just for reference, patent US6054435A is where these values come from.

Catalogue of MIC values
system: Streptococcus pyogenes EES61
Answer with a number only, understood to be in µg/mL.

{"columns": ["compound-structure", "assayed-target", "unit-text", "MIC"],
 "data": [
  ["CC[C@H]1OC(=O)[C@H](C)C(=O)[C@H](C)[C@@H](O[C@@H]2O[C@H](C)C[C@H](N(C)C)[C@H]2O)[C@](C)(OCC#Cc2ccc(-c3cccc(OC)c3)s2)C[C@@H](C)C(=O)[C@H](C)[C@H]2NC(=O)O[C@@]21C", "Streptococcus pyogenes EES61", "µg/mL", 0.01],
  ["CC[C@H]1OC(=O)[C@H](C)C(=O)[C@H](C)[C@@H](O[C@@H]2O[C@H](C)C[C@H](N(C)C)[C@H]2O)[C@](C)(OC/C=C/c2cncc(-c3cnc4ccccc4c3)c2)C[C@@H](C)C(=O)[C@H](C)[C@H]2NC(=O)O[C@@]21C", "Streptococcus pyogenes EES61", "µg/mL", 0.01],
  ["CC[C@H]1OC(=O)[C@H](C)C(=O)[C@H](C)[C@@H](O[C@@H]2O[C@H](C)C[C@H](N(C)C)[C@H]2O)[C@](C)(OCC#Cc2ccc(-c3cccs3)s2)C[C@@H](C)C(=O)[C@H](C)[C@H]2NC(=O)O[C@@]21C", "Streptococcus pyogenes EES61", "µg/mL", 0.005]
]}

Ask | Recall the reported MIC of `CC[C@H]1OC(=O)[C@H](C)C(=O)[C@H](C)[C@@H](O[C@@H]2O[C@H](C)C[C@H](N(C)C)[C@H]2O)[C@](C)(OC/C=C/c2cnc(-c3cccnc3)s2)C[C@@H](C)C(=O)[C@H](C)[C@H]2NC(=O)O[C@@]21C` on Streptococcus pyogenes EES61 and write it down.
Reply | 0.05

====

MIC data for Streptococcus pyogenes PIU 2548 follow.
# output: number + unit

Consider the worked cases shown below.
{"columns": ["compound-structure", "MIC"],
 "data": [
  ["CC[C@H]1OC(=O)[C@H](C)C(=O)[C@H](C)[C@@H](O[C@@H]2O[C@H](C)C[C@H](N(C)C)[C@H]2O)[C@](C)(OCC#Cc2ccc(-c3cccc(F)c3)s2)C[C@@H](C)C(=O)[C@H](C)[C@H]2NC(=O)O[C@@]21C", "0.2 µg/mL"],
  ["CC[C@H]1OC(=O)[C@H](C)C(=O)[C@H](C)[C@@H](O[C@@H]2O[C@H](C)C[C@H](N(C)C)[C@H]2O)[C@](C)(OC/C=C/c2ccc(-c3ccncn3)s2)C[C@@H](C)C(=O)[C@H](C)[C@H]2NC(=O)O[C@@]21C", "0.1 µg/mL"],
  ["CC[C@H]1OC(=O)[C@H](C)C(=O)[C@H](C)[C@@H](O[C@@H]2O[C@H](C)C[C@H](N(C)C)[C@H]2O)[C@](C)(OCC#Cc2ccc(-c3cccc(Cl)c3)s2)C[C@@H](C)C(=O)[C@H](C)[C@H]2NC(=O)O[C@@]21C", "0.2 µg/mL"]
]}

Ask | Specify reported MIC for the compound shown: `CC[C@H]1OC(=O)[C@H](C)C(=O)[C@H](C)[C@@H](O[C@@H]2O[C@H](C)C[C@H](N(C)C)[C@H]2O)[C@](C)(OC/C=C/c2cncc(-c3cncc4ccccc34)c2)C[C@@H](C)C(=O)[C@H](C)[C@H]2NC(=O)O[C@@]21C`
Reply | 0.2 µg/mL

====

test system: Streptococcus pyogenes PIU 2548
In this section we review reported MIC values for a set of compounds.
Write the value in mg/L as a bare number.

Ask | // fetch MIC; item: CC[C@H]1OC(=O)[C@H](C)C(=O)[C@H](C)[C@@H](O[C@@H]2O[C@H](C)C[C@H](N(C)C)[C@H]2O)[C@](C)(OCC#Cc2ccc(-c3cccnc3)s2)C[C@@H](C)C(=O)[C@H](C)[C@H]2NC(=O)O[C@@]21C [Example 2] ; system: Streptococcus pyogenes PIU 2548
Reply | 0.1

Ask | Provide MIC, recorded with Streptococcus pyogenes PIU 2548, of CC[C@H]1OC(=O)[C@H](C)[C@@H](O[C@H]2C[C@@](C)(OC)[C@@H](O)[C@H](C)O2)[C@H](C)[C@@H](O[C@@H]2O[C@H](C)C[C@H](N(C)C)[C@H]2O)[C@](C)(O)C[C@@H](C)C(=O)[C@H](C)[C@@H](O)[C@]1(C)O [Ery. A, Erythromycin A, reference compound]
Reply | 6.2

Ask | Supply MIC measured with Streptococcus pyogenes PIU 2548 for CC[C@H]1OC(=O)[C@H](C)C(=O)[C@H](C)[C@@H](O[C@@H]2O[C@H](C)C[C@H](N(C)C)[C@H]2O)[C@](C)(OC/C=C/c2ccc(-c3ccccn3)s2)C[C@@H](C)C(=O)[C@H](C)[C@H]2NC(=O)O[C@@]21C [Example 75] .
Reply | 0.1

Ask | Enter MIC (test system Streptococcus pyogenes PIU 2548) for CC[C@H]1OC(=O)[C@H](C)C(=O)[C@H](C)[C@@H](O[C@@H]2O[C@H](C)C[C@H](N(C)C)[C@H]2O)[C@](C)(OC/C=C/c2cncc(-c3cnc4ccccc4c3)c2)C[C@@H](C)C(=O)[C@H](C)[C@H]2NC(=O)O[C@@]21C [Example 44]
Reply | 0.1

====

These compounds were tested on Nocardia Asteroides ATCC9970; MIC is the recorded read-out.

{"columns": ["compound-structure", "recorded-measurement"],
 "data": [
  ["CC[C@H]1OC(=O)[C@H](C)C(=O)[C@H](C)[C@@H](O[C@@H]2O[C@H](C)C[C@H](N(C)C)[C@H]2O)[C@](C)(OC/C=C/c2ccc(-c3ncccn3)s2)C[C@@H](C)C(=O)[C@H](C)[C@H]2NC(=O)O[C@@]21C", "0.05 µg/mL"],
  ["CC[C@H]1OC(=O)[C@H](C)C(=O)[C@H](C)[C@@H](O[C@@H]2O[C@H](C)C[C@H](N(C)C)[C@H]2O)[C@](C)(OC/C=C/c2ccc(-c3nccs3)s2)C[C@@H](C)C(=O)[C@H](C)[C@H]2NC(=O)O[C@@]21C", "0.05 µg/mL"]
]}

Ask | Return reported MIC for target or system Nocardia Asteroides ATCC9970, item `CCOC(=O)c1cncc(-c2ccc(C#CCO[C@]3(C)C[C@@H](C)C(=O)[C@H](C)[C@H]4NC(=O)O[C@]4(C)[C@@H](CC)OC(=O)[C@H](C)C(=O)[C@H](C)[C@H]3O[C@@H]3O[C@H](C)C[C@H](N(C)C)[C@H]3O)s2)c1` .
Reply | 0.1 µg/mL

Ask | Write MIC of `CC[C@H]1OC(=O)[C@H](C)C(=O)[C@H](C)[C@@H](O[C@@H]2O[C@H](C)C[C@H](N(C)C)[C@H]2O)[C@](C)(OC/C=C/c2ccc(-c3ccc(Cl)c(Cl)c3)s2)C[C@@H](C)C(=O)[C@H](C)[C@H]2NC(=O)O[C@@]21C` ; system used: Nocardia Asteroides ATCC9970
Reply | 0.39 µg/mL

====

// each record: one item and its MIC for Streptococcus pyogenes PIU 2548
Hi! Could you send only the number? It should be in µg/mL, unit omitted.

Ask | Input CC[C@H]1OC(=O)[C@H](C)C(=O)[C@H](C)[C@@H](O[C@@H]2O[C@H](C)C[C@H](N(C)C)[C@H]2O)[C@](C)(OC/C=C/c2ccc(-c3cccs3)s2)C[C@@H](C)C(=O)[C@H](C)[C@H]2NC(=O)O[C@@]21C [Example 74] , output reported MIC.
Reply | 0.1

Ask | Give the measured MIC for CC[C@H]1OC(=O)[C@H](C)C(=O)[C@H](C)[C@@H](O[C@@H]2O[C@H](C)C[C@H](N(C)C)[C@H]2O)[C@](C)(OC/C=C/c2cncc(-c3ncccn3)c2)C[C@@H](C)C(=O)[C@H](C)[C@H]2NC(=O)O[C@@]21C [Example 46]
Reply | 0.2

Ask | Provide only the value of recorded MIC for CC[C@H]1OC(=O)[C@H](C)C(=O)[C@H](C)[C@@H](O[C@@H]2O[C@H](C)C[C@H](N(C)C)[C@H]2O)[C@](C)(OCC#Cc2ccc(-c3cscn3)s2)C[C@@H](C)C(=O)[C@H](C)[C@H]2NC(=O)O[C@@]21C [Example 30]
Reply | 0.1

Ask | Give the value of MIC reported for the following: CC[C@H]1OC(=O)[C@H](C)C(=O)[C@H](C)[C@@H](O[C@@H]2O[C@H](C)C[C@H](N(C)C)[C@H]2O)[C@](C)(OCC#Cc2ccc(-c3ccc(C=O)o3)cc2)C[C@@H](C)C(=O)[C@H](C)[C@H]2NC(=O)O[C@@]21C [Example 24]
Reply | 0.78

Ask | Answer with the recorded MIC for the molecule listed here: CC[C@H]1OC(=O)[C@H](C)C(=O)[C@H](C)[C@@H](O[C@@H]2O[C@H](C)C[C@H](N(C)C)[C@H]2O)[C@](C)(OC/C=C/c2cnc(-c3cccs3)s2)C[C@@H](C)C(=O)[C@H](C)[C@H]2NC(=O)O[C@@]21C [Example 57]
Reply | 0.1

Ask | Quick one: give measured MIC for CC[C@H]1OC(=O)[C@H](C)C(=O)[C@H](C)[C@@H](O[C@@H]2O[C@H](C)C[C@H](N(C)C)[C@H]2O)[C@](C)(OCC#Cc2ccc(-c3ccc(F)cc3)s2)C[C@@H](C)C(=O)[C@H](C)[C@H]2NC(=O)O[C@@]21C [Example 22]
Reply | 3.1

Ask | Provide only the value of recorded MIC for CC[C@H]1OC(=O)[C@H](C)C(=O)[C@H](C)[C@@H](O[C@@H]2O[C@H](C)C[C@H](N(C)C)[C@H]2O)[C@](C)(OC/C=C/c2ccc(-c3cncnc3)s2)C[C@@H](C)C(=O)[C@H](C)[C@H]2NC(=O)O[C@@]21C [Example 70]
Reply | 0.1

Ask | Provide one value: measured MIC of CC[C@H]1OC(=O)[C@H](C)C(=O)[C@H](C)[C@@H](O[C@@H]2O[C@H](C)C[C@H](N(C)C)[C@H]2O)[C@](C)(OC/C=C/c2cncc(-n3ccnc3)c2)C[C@@H](C)C(=O)[C@H](C)[C@H]2NC(=O)O[C@@]21C [Example 37]
Reply | 0.39
